Assign Fold of Change KO/WT to each entry below.
molecular target: Oatp1b2 (Mus musculus, UniProt Q9JJL3); experiment: Untargeted metabolomics of plasma from untreated wild-type and Oatp1b2(−/−) mice; conditions: plasma of untreated Oatp1b2-deficient (KO) vs wild-type (WT) mice; semi-quantitative; positive = higher in KO; n = 6 per group
Where a name gives a salt, the structure may show the parent alone.
Answers are plain numbers.

# example entries with known answers
**Q:** Can you look up the measured Fold of Change KO/WT of O=S(=O)(O)Oc1c[nH]c2ccccc12 [3-indoxyl sulfate] for me?
**A:** 1.48

**Q:** Can you look up the measured Fold of Change KO/WT of CC(C)CCC[C@@H](C)[C@H]1CC[C@H]2[C@@H]3CC=C4C[C@@H](OS(=O)(=O)O)CC[C@]4(C)[C@H]3CC[C@]12C [cholesterol sulfate] for me?
**A:** 1.23

Now examine the next entry.
**Q:** Can you look up the measured Fold of Change KO/WT of CC(CCC[C@@H](C)[C@H]1CC[C@H]2[C@@H]3[C@H](O)CC4=CC(=O)CC[C@]4(C)[C@H]3CC[C@]12C)C(=O)O (stereo partly drawn) for me?
**A:** 1.27

* * *

Biological target: Oatp1b2 (Mus musculus)
Sequence (Q9JJL3 1-689): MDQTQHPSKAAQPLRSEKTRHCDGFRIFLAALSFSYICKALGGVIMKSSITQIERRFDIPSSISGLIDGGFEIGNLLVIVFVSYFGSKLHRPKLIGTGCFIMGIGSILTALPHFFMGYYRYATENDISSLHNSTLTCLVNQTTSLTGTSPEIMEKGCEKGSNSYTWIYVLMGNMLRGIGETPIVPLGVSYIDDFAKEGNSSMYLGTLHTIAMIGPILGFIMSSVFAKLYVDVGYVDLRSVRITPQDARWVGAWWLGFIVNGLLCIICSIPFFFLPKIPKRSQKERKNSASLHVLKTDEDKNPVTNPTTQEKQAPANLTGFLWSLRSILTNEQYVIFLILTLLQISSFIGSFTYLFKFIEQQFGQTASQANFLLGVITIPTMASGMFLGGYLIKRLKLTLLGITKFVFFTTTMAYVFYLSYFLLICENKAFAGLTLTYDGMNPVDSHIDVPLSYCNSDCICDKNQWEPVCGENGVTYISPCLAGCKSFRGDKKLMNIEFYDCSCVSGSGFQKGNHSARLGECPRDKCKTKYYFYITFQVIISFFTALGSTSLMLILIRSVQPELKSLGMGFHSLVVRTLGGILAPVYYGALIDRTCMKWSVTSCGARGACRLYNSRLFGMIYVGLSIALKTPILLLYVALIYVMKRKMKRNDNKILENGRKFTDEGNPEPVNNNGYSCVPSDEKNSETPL
Assay: Untargeted metabolomics of plasma from untreated wild-type and Oatp1b2(−/−) mice
Details: plasma of untreated Oatp1b2-deficient (KO) vs wild-type (WT) mice; semi-quantitative; positive = higher in KO; n = 6 per group
Assign Fold of Change KO/WT to each entry below.
One number for each entry.

# example entries with known answers
**Q:** Can you look up the measured Fold of Change KO/WT of CCCCCCCC/C=C\CCCCCCCC(N)=O [oleamide] for me?
**A:** 1.38

**Q:** Can you look up the measured Fold of Change KO/WT of "CSC[C@H](NC(=O)CC[C@H](N)C(=O)O)C(=O)NCC(=O)O" for me?
**A:** 1.19

**Q:** Can you look up the measured Fold of Change KO/WT of "CC/C=C\C/C=C\C/C=C\CCCCCCCC(=O)O[C@H](COC(=O)CCCCCCC/C=C\CCCCCC)COP(=O)([O-])OCC[N+](C)(C)C" for me?
**A:** 1.86

Quick batch: Fold of Change KO/WT for everything below.
1. O=C(O)CCCCCCCCCCCCCCCCC(=O)O [octadecanedioate (C18-DC)]
2. CC(=O)N[C@@H](CC[S+](C)[O-])C(=O)O (stereo partly drawn) [N-acetylmethionine sulfoxide]
3. O=C(O)C1CCCCN1 (stereo not drawn) [pipecolate]
4. C[C@H](CCC(=O)O)[C@H]1CC[C@H]2[C@@H]3C[C@H](O)[C@@H]4C[C@H](O)CC[C@]4(C)[C@H]3CC[C@]12C [hyodeoxycholate]
5. CCCCCCCCCCCCCC(=O)O[C@H](CC(=O)[O-])C[N+](C)(C)C
6. CCCCC/C=C\C/C=C\C/C=C\C/C=C\CCCC(=O)O[C@H](CO/C=C\CCCCCCCCCCCCCC)COP(=O)([O-])OCC[N+](C)(C)C

**A:**
1. 1.38
2. 1.40
3. 1.12
4. 14.7
5. 1.39
6. 1.46

Quick batch: Fold of Change KO/WT for everything below.
1. CCCCCC/C=C\CCCCCCCC(=O)OC[C@@H](O)COP(=O)([O-])OCC[N+](C)(C)C
2. C[N+](C)(C)CCCCC(=O)[O-] [N,N,N-trimethyl-5-aminovalerate]
3. CCCCCCCCCCCCCCCCC(=O)OC(CC(=O)[O-])C[N+](C)(C)C (stereo not drawn)
4. NCCOP(=O)(O)OCC(O)CO (stereo not drawn)
5. CCCCC/C=C\C/C=C\C/C=C\C/C=C\CCCC(=O)O[C@H](COC(=O)CCCCCCC/C=C\C/C=C\CCCCC)COP(=O)(O)OCCN

**A:**
1: 1.97; 2: 3.45; 3: 1.59; 4: 1.57; 5: 1.48

Quick batch: Fold of Change KO/WT for everything below.
1. O=C(O)CCCCCCCCCCCCCCCC(=O)O [heptadecanedioate (C17-DC)]
2. Cc1c(C)c2c(c(C)c1O)CC[C@@](C)(CCC[C@H](C)CCC[C@H](C)CCCC(C)C)O2
3. NCCS(=O)O
4. CC/C=C\C/C=C\C/C=C\C/C=C\C/C=C\C/C=C\CCC(=O)O[C@H](COC(=O)CCCCCCC/C=C\CCCCCCCC)COP(=O)([O-])OCC[N+](C)(C)C
5. CCCCCCC(=O)NCC(=O)O

**A:**
1. 1.66
2. 2.03
3. 1.28
4. 1.34
5. 1.52

Quick batch: Fold of Change KO/WT for everything below.
1. O=C(O)CC[C@H](NC(=O)Cc1ccccc1)C(=O)O [phenylacetylglutamate]
2. O=C(O)CCCCCCCCCCCCCCCCCC(=O)O [nonadecanedioate (C19-DC)]
3. O=C(O)[C@H]1O[C@@H](Oc2ccccc2)[C@H](O)[C@@H](O)[C@@H]1O [phenol glucuronide]
4. CC(=O)N[C@@H](CCCCNC(N)=O)C(=O)O
5. CSC=CC(O)C(O)C(=O)O (stereo not drawn)

**A:**
[1.46, 1.44, 1.87, 1.35, 1.34]

* * *

Assign Mean value KO to each entry below.
target: Oatp1b2 (Mus musculus, UniProt Q9JJL3); assay: Untargeted metabolomics of plasma from untreated wild-type and Oatp1b2(−/−) mice; details: plasma of untreated Oatp1b2-deficient mice; raw area counts rescaled to median = 1
Where a name gives a salt, the structure may show the parent alone.
Numbers only.

# example entries with known answers
**Q:** Fill in the recorded Mean value KO for this compound, with Oatp1b2 (Mus musculus, UniProt Q9JJL3) as test system: CCCCCCCC/C=C\CCCCCCCC(=O)OC[C@@H](O)COP(=O)(O)OC1[C@H](O)[C@H](O)C(O)[C@H](O)[C@H]1O (some centres unmarked)
**A:** 1.36

**Q:** Fill in the recorded Mean value KO for this compound, with Oatp1b2 (Mus musculus, UniProt Q9JJL3) as test system: C[C@H](CCC(=O)O)[C@H]1CC[C@H]2[C@@H]3CC[C@@H]4C[C@H](O)CC[C@]4(C)[C@H]3C[C@H](OS(=O)(=O)O)[C@]12C [deoxycholic acid 12-sulfate]
**A:** 1.06

**Q:** Fill in the recorded Mean value KO for this compound, with Oatp1b2 (Mus musculus, UniProt Q9JJL3) as test system: C=Cc1ccc(OS(=O)(=O)O)cc1 [4-vinylphenol sulfate]
**A:** 1.32

**Q:** Fill in the recorded Mean value KO for this compound, with Oatp1b2 (Mus musculus, UniProt Q9JJL3) as test system: "CCCCCCCCCCCCCCCC/C=C\OC[C@@H](O)COP(=O)(O)OCCN"
**A:** 1.28

**Q:** Fill in the recorded Mean value KO for this compound, with Oatp1b2 (Mus musculus, UniProt Q9JJL3) as test system: CC(=O)Nc1ccc(C(=O)O)cc1 [4-acetamidobenzoate]
**A:** 1.46

**Q:** Fill in the recorded Mean value KO for this compound, with Oatp1b2 (Mus musculus, UniProt Q9JJL3) as test system: "CCCCC/C=C\C/C=C\CCCCCCCC(=O)OC[C@@H](O)COP(=O)([O-])OCC[N+](C)(C)C"
**A:** 1.22

Quick batch: Mean value KO for everything below.
1. C[C@H](CCC(=O)O)[C@H]1CC[C@H]2[C@@H]3C[C@@H](O)[C@@H]4C[C@H](O)CC[C@]4(C)[C@H]3CC[C@]12C [6-beta-hydroxylithocholate]
2. CCCCC/C=C\C/C=C\C/C=C\C/C=C\CCCC(=O)OC[C@@H](O)COP(=O)(O)OCCN

**A:**
1. 1.16
2. 1.20
